# Tested on: A549 (human lung adenocarcinoma) cell line
# ASSAY_EXPLANATION: MTT anticancer assay, A549
# Assay type: cell-based
# CONDITION_INFO: A549, 25 µg/ml
Entries and their % cell viability values follow.

NS(=O)(=O)c1ccc(-n2nc(C(=O)NN=Cc3cccc(Oc4ccccc4)c3)cc2-c2ccc(Cl)cc2)cc1    60.37%
COc1ccc(-c2cc(C(=O)NN=Cc3ccc(Oc4ccccc4)cc3)nn2-c2ccc(S(N)(=O)=O)cc2)cc1    54.02%
NS(=O)(=O)c1ccc(-n2nc(C(=O)NN=Cc3ccc(Cl)cc3O)cc2-c2ccc(Br)cc2)cc1    76.64%

Here's the next entry for you.
The reported % cell viability of the molecule Cc1cc(C=NNC(=O)c2cc(-c3ccc(Br)cc3)n(-c3ccc(S(N)(=O)=O)cc3)n2)cc(C)c1OCc1ccccc1 was 72.36%
